- System: mAb CHO-131
- Method Description: Glycan microarray analysis (Consortium for Functional Glycomics, printed array version 4.0), glycan binding of mAb CHO-131
- Measurement Context: mAb CHO-131 at 50 μg/ml; average RFU of 6 replicates after removal of highest and lowest values
Would you kindly list RFU for each of these compounds?
Answer in RFU, number only, no unit symbol.

IN: Look up RFU with mAb CHO-131 for this compound: C[C@@H]1O[C@@H](O[C@H]2[C@H](O[C@H]3[C@H](O)[C@@H](O)C(OCCN)O[C@@H]3COS(=O)(=O)O)O[C@H](COS(=O)(=O)O)[C@H](O)[C@@H]2O)[C@@H](O)[C@H](O)[C@@H]1O (stereo partly shown) [compound 213]
OUT: 1100

IN: Let us now turn to CC(=O)NC1C(O)CC(OC2C(O)C(COS(=O)(=O)O)OC(OC3C(CO)OC(OCCCN)C(NC(C)=O)C3OC3OC(C)C(O)C(O)C3O)C2O)(C(=O)O)OC1C(O)C(O)CO (stereo not shown) [compound 220]
OUT: 36255

IN: Can you check CC(=O)NC1C(O)CC(OC2C(O)C(CO)OC(OC3C(CO)OC(OCCCN)C(NC(C)=O)C3OC3OC(C)C(O)C(O)C3O)C2O)(C(=O)O)OC1C(O)C(O)CO (stereo not shown) [compound 244] next?
OUT: 34336

IN: Please do the same for CC(=O)NC1C(O)CC(OC2C(O)C(CO)OC(OC3C(CO)OC(OC4C(O)C(CO)OC(OC5C(CO)OC(OC6C(O)C(CO)OC(OC7C(CO)OC(OCCN)C(NC(C)=O)C7OC7OC(C)C(O)C(O)C7O)C6O)C(NC(C)=O)C5OC5OC(C)C(O)C(O)C5O)C4O)C(NC(C)=O)C3OC3OC(C)C(O)C(O)C3O)C2O)(C(=O)O)OC1C(O)C(O)CO (stereo not shown) [compound 242] as well.
OUT: 29505
